// values below are reported protein stability index
B1: C9orf25 (parent)
chain: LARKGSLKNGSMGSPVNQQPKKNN

variants of: B1; experiment: protein stability index of a GFP-peptide fusion (GPS, HEK-293T) (PSI 1-6); higher = more stable; conditions: c terminus: a fixed tail appended;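 further: lentivirally expressed fusions sorted by FACS into six bins by GFP to DsRed ratio, PSI derived from sequencing read proportions per bin multiplied by bin number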
The answer should be written as a number, with no unit following it.

{"sequenceCode": "LARKGSLKNGSMGSKVNQQPKKNN", "protein stability index": 4.34}

protein stability index lookup needed for `LARKGSLKNGSMGSPVLQQPKKNN` , thanks. 4.64

What value of protein stability index has been recorded for this entry: `LARKGSLKNGSMGSPVNQQPKKNG` 4.76

Entry `LARKGSLKNGSMGSPVNQQPKKFN` has what protein stability index? 4.19

Record request: protein stability index value, item `LATKGSLKNGSMGSPVNQQPKKNN` 4.85

Which protein stability index value belongs to `LARKGSLKNGSMGSPVNQQPQKNN` ? 4.48

Need protein stability index of `LARKGSLYNGSMGSPVNQQPKKNN` , thanks. 4.11

Which measured protein stability index value corresponds to `LARKGSLKNGSMASPVNQQPKKNN` ? 4.79

Param item = `LARKGSLKNGSMGSPVNQQPKKNL` ; retrieve measured protein stability index. 4.76

What does the data say about its protein stability index? Entry: `LAQKGSLKNGSMGSPVNQQPKKNN` 4.99

Reported protein stability index, variant `LAYKGSLKNGSMGSPVNQQPKKNN` : ____ 4.73
